Data credit: BindingDB's records for doi:10.1016/j.bmcl.2010.02.003

Below are pIC50 values measured for Cytochrome P450 2D6 (Homo sapiens, UniProt P10635).
pIC50: −log10 of the molar value.
measured.endpoint: pIC50

> print(dat)
                        structure.as.smiles  measured.endpoint   value
1  O=C(O)/C=C/c1ccc(NC(=O)C2(NC(=O)c3ccc4c(c3)nc(-c3ccoc3)n4C3CCCCC3)CCCC2)cc1              pIC50  < 4.52
2  O=C(O)/C=C/c1ccc(NC(=O)C2(NC(=O)c3ccc4c(c3)nc(-c3ccccn3)n4C3CCCCC3)CCCC2)cc1              pIC50  < 4.52
